system: Saccharomyces cerevisiae; experiment: protein stability index of tFT-peptide fusion (C-terminal peptide) (PSI (0-1 scale)); higher = more stable (slower turnover); conditions: genetic background: wild type; temperature: 30 C
Measured Quantity: protein stability index

1) EVLAVKLYSGIA 0.648
2) VSIAYARHGDSV 0.693
3) LQHGKSRCAFRK 0.652
4) PVSPALTPFPPS 0.705
5) GRKWRTSCQCVS 0.586
6) FTPLPHAHPPPP 0.664

* * *

tested on: Saccharomyces cerevisiae; test: protein stability index of tFT-peptide fusion (C-terminal peptide) (PSI (0-1 scale)); higher = more stable (slower turnover); settings: genetic background: wild type; temperature: 30 C
Respond with criterion met for protein stability index values of 0.7 and above, criterion not met for values below.

Biosequence	Category
DEVTYLMFSSIM [SPG1 C-terminal 12 aa]	criterion not met
DYKLRELIYDTI [AIP5 C-terminal 12 aa]	criterion not met
NVKSSTQEKDSK [SGN1 C-terminal 12 aa]	criterion met
IIGIYYVLKWLR [BOS1 C-terminal 12 aa]	criterion not met
KSAKTAKASQEL [HTA2 C-terminal 12 aa]	criterion not met
EELFEEDSFYKY [NDT80 C-terminal 12 aa]	criterion met
